Reference source: patent US6426355B1

Task for the reader: assign each of the following compounds its reported IC50 (ug/ml) HSV.
system: HSV-1; experiment: HSV Antiviral (ELISA) assay; type: cell-based; details: HSV-1 in Vero cells
One number for each entry, in µg/mL.

Please state IC50 (ug/ml) HSV for every compound in the list that follows.
1. CN1CCC(N(C)c2ccc(NC(=S)Nc3ccc(NC(=O)c4csnn4)cc3)cc2Cl)C1 (centres unmarked)
2. COc1cc(OC)c(NC(=S)Nc2ccc(NC(=O)c3cc4ccccc4s3)cc2)cc1Cl
3. O=C(Nc1ccc(NC(=S)NCCOc2ccccc2)cc1)c1csnn1
4. COc1cc(OC)c(NC(=S)Nc2ccc(NC(=O)c3sccc3Br)cc2)cc1Cl
5. CC(C)c1cccc(NC(=S)Nc2ccc(NC(=O)c3ccco3)cc2)c1

Reply:
1. 2
2. 2
3. 10
4. 2
5. 8
